Just for reference, ChEMBL document CHEMBL1949509 is where these values come from.

Observed Ki for Coagulation factor X (Homo sapiens, UniProt P00742), reported per entry below.
Number first, unit second: that is the form wanted.

INPUT: Fill blank: measured Ki of the compound CN1CC(C)(COc2ccc(C(=N)N)cc2)Oc2cc(N(CC(=O)O)Cc3ccc(F)cc3)ccc21 (configuration not stated) is ____.
OUTPUT: 5.6 µM

Provide Ki for all items below, preserving their order.
1. CCOC(=O)C(=O)N(Cc1ccc(F)cc1)c1ccc2c(c1)N(C)CC(C)(COc1ccc(C(=N)N)cc1)O2 (configuration not stated)
2. CN1CC(C)(COc2ccc(C(=N)N)cc2)Oc2ccc(N(CC(=O)O)Cc3ccc(F)c(F)c3)cc21 (configuration not stated)
3. CCOC(=O)C(=O)N(Cc1ccc(F)c(F)c1)c1ccc2c(c1)OC(C)(COc1ccc(C(=N)N)cc1)CN2C (configuration not stated)
4. CN1CC(C)(COc2ccc(C(=N)N)cc2)Oc2cc(N(CC(=O)O)Cc3ccc(F)c(F)c3)ccc21 (configuration not stated)
5. CCOC(=O)C(=O)N(Cc1ccc(F)cc1)c1ccc2c(c1)OC(C)(COc1ccc(C(=N)N)cc1)CN2C (configuration not stated)

OUTPUT:
5.49 µM
6.5 µM
1.6 µM
4.4 µM
2.83 µM

Report Ki for every entry below.
1. CN1CC(C)(COc2ccc(C(=N)N)cc2)Oc2ccc(N(CC(=O)O)Cc3cc(F)cc(F)c3)cc21 (configuration not stated)
2. CCOC(=O)CN(Cc1cccc(F)c1)c1ccc2c(c1)N(C)CC(C)(COc1ccc(C(=N)N)cc1)O2 (configuration not stated)
3. CN1CC(C)(COc2ccc(C(=N)N)cc2)Oc2cc(N(Cc3cc(F)cc(F)c3)C(=O)C(=O)O)ccc21 (configuration not stated)
4. CCOC(=O)CN(Cc1cccc(F)c1)c1ccc2c(c1)OC(C)(COc1ccc(C(=N)N)cc1)CN2C (configuration not stated)

OUTPUT:
1: 9.8 µM; 2: 6.8 µM; 3: 1.6 µM; 4: 1.2 µM

Go through the list and state Ki for each entry.
1. CN1CC(C)(COc2ccc(C(=N)N)cc2)Oc2ccc(N(Cc3ccc(F)c(F)c3)C(=O)C(=O)O)cc21 (configuration not stated)
2. CN1CC(C)(COc2ccc(C(=N)N)cc2)Oc2ccc(N(CC(=O)O)Cc3ccc(F)cc3)cc21 (configuration not stated)

OUTPUT:
["14 µM", "7.7 µM"]

* * *

Target: Integrin alpha-IIb/beta-3 (Homo sapiens, UniProt P05106+P08514)
Sequence (P05106 27-788 limits assumed): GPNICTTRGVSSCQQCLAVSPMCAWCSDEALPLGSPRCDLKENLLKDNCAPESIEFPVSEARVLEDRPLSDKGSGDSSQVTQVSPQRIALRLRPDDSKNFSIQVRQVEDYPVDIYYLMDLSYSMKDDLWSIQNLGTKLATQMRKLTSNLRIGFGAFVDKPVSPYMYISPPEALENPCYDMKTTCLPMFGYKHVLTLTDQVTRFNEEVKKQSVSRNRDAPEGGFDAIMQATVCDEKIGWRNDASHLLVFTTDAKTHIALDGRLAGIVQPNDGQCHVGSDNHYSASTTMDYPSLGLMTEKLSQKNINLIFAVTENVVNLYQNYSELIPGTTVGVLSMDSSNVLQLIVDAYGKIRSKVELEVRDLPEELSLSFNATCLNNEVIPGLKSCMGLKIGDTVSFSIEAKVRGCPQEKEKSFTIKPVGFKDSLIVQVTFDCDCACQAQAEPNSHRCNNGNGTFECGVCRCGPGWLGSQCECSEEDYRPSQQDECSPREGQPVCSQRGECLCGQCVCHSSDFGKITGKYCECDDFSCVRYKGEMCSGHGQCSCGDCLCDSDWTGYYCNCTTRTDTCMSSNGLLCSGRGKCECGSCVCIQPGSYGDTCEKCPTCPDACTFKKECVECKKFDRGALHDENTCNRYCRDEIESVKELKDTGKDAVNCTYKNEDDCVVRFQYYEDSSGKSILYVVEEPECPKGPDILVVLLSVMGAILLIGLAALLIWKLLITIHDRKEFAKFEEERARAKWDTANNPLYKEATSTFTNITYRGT
Sequence (P08514 32-887 limits assumed): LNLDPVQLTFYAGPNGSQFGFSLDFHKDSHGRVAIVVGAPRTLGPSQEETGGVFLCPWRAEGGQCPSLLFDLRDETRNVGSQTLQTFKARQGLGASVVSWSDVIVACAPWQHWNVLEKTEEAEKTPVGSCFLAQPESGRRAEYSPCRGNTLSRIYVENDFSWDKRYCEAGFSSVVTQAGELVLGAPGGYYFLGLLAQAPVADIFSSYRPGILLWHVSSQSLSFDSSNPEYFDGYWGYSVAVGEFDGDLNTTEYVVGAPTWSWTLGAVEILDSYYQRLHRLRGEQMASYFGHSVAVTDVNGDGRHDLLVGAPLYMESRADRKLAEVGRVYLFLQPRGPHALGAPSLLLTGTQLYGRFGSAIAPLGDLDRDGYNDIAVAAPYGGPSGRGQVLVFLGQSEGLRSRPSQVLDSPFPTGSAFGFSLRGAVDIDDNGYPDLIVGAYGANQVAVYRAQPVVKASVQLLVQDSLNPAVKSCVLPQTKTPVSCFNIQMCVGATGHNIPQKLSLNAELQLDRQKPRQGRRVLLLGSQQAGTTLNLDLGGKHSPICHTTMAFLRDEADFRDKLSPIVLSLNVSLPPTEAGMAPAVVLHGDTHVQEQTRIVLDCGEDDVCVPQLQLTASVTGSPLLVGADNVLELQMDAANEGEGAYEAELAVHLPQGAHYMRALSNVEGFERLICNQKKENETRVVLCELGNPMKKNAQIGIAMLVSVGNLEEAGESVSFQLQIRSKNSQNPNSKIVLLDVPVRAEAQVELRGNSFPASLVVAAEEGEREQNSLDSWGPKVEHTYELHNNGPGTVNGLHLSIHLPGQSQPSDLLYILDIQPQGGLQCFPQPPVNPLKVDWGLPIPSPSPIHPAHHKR
Sequence (P08514 891-1039 limits assumed): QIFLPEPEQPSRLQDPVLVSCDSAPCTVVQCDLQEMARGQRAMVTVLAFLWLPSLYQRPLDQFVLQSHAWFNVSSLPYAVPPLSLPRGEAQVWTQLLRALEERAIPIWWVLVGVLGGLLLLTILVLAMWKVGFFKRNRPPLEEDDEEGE
Test: Displacement of biotinylated fibrinogen from human alpha2b-beta3 receptor after 2 hrs by chemiluminescence assay
Record form. Attribute: pIC50. Fill in for each entry.
One number for each entry, as −log10 of the molar value.

INPUT: What value of pIC50 has been reported for the following compound? CN1CC(C)(COc2ccc(C(=N)N)cc2)Oc2ccc(N(Cc3ccc(F)cc3)C(=O)C(=O)O)cc21 (centres undefined)
OUTPUT: 5.74

Attention now shifts to the item below.
INPUT: Dear colleague, I am looking for the recorded pIC50 of the following compound: CN1CC(C)(COc2ccc(C(=N)N)cc2)Oc2cc(N(Cc3ccc(F)cc3)C(=O)C(=O)O)ccc21 (centres undefined)
OUTPUT: 4.47

* * *

Target: Integrin alpha-IIb/beta-3 (Homo sapiens, UniProt P05106+P08514)
Experiment: Displacement of biotinylated fibrinogen from human alpha2b-beta3 receptor after 2 hrs by chemiluminescence assay
pIC50: −log10 of the molar value.
quantity: pIC50

Each compound below has a recorded value; state its pIC50.
1. CCOC(=O)CN(Cc1ccc(F)c(F)c1)c1ccc2c(c1)OC(C)(COc1ccc(C(=N)N)cc1)CN2C (stereo not drawn)
2. CCOC(=O)CN(Cc1ccc(F)cc1)c1ccc2c(c1)N(C)CC(C)(COc1ccc(C(=N)N)cc1)O2 (stereo not drawn)
3. CCOC(=O)C(=O)N(Cc1cccc(F)c1)c1ccc2c(c1)OC(C)(COc1ccc(C(=N)N)cc1)CN2C (stereo not drawn)

OUTPUT:
< 4.00
< 4.00
< 4.00
